System: SK-OV-3 ovarian
method: NCI tumour cell line growth inhibition, 48 h
measure: TGI (µM)
One number for each entry, in µM.

C[C@H]1COC2=C1C(=O)C(=O)c1c2ccc2c1CCCC2(C)C : 83.6
CCCCCCCCCCCCCC(=O)N(CCCCCCCCC)CC(O)C(O)C(OC1OC(CO)C(O)C(O)C1O)C(O)CO (configuration not stated) : 30.8
CC(C)=CCCC(C)C1=C(O)C(=O)C(C)=CC1=O (configuration not stated) : 78.5
Cn1cccc1/C=C/c1cc(Br)c(/C=C/c2cccn2C)cc1Br : 30.3
C[C@@H]1COCCN1c1cc(C2(O)C[C@H]3CC[C@@H](C2)O3)c2cnn(-c3ccn[nH]3)c2n1 (some centres not stated) : 4.03

Record TGI per entry; entries follow.
1. COC(=O)C(C)NC(=O)c1ccccc1I(OS(=O)(=O)C(F)(F)F)c1ccccc1 (configuration not stated)
2. CCN(Cc1c(Cl)cccc1Cl)c1ccc(CO)c(Cl)c1
3. OCCN1CCN(CC/C=C2/c3ccccc3Sc3ccc(Cl)cc32)CC1
4. O=C1OCC2=C1C(c1ccccc1)c1cc3c(cc1N2CCO)OCCO3 (configuration not stated)

1: 56.5; 2: 22.3; 3: 29.3; 4: 13.4

###

Hi there, I'd appreciate the recorded TGI for every entry that follows.
Tested on: SK-MEL-5 melanoma
method: NCI tumour cell line growth inhibition, 48 h
One number for each entry, in µM.

Would you please look over these solved cases?
COc1ccc(Nc2nc(N)c(C(=O)c3cccs3)s2)cc1 : 12.8
Oc1ccc(Cc2cc(Cl)cc(Cl)c2O)cc1Cl : 32.1
CC(=O)[O-].O=C([CH-]C(=O)c1ccccc1)c1ccccc1.O=C([CH-]C(=O)c1ccccc1)c1ccccc1.[Sm+3] : 10.2
CCSc1ccc(C2C(Br)C(=O)N2c2cc(OC)c(OC)c(OC)c2)cc1 (stereo not given) : 2.84

# ---- query compound ----
For Cc1ccc([C@]2(C)CC[C@H](C)/C2=C\Br)c(O)c1 , what is its reported TGI? 15.5

###

Hi there, I'd appreciate the recorded TGI for every entry that follows.
Tested on: MDA-N
method: NCI tumour cell line growth inhibition, 48 h

Would you please look over these solved cases?
C=C1C(=O)OC2CC3(C)OC3CC/C(C)=C/C(OC(C)=O)C12 (stereo unspecified) : 18.7 µM
C[N+](C)(CCNC(=O)c1cccc2cc3ccccc3nc12)Cc1ccc([N+](=O)[O-])s1 : > 25 µM
Cc1c(C(=O)O)n2cnnc2c2ccccc12 : > 100 µM

Record TGI per entry; entries follow.
1. CNc1ncnc2c1cnn2Cc1cn(COCC(O)CO)nn1 (stereo unspecified)
2. O=[N+]([O-])C(Cl)=C/C(=C(\Cl)SCc1ccccc1)[N+](=O)[O-]
3. COc1ccccc1C(=O)N(C)c1ccc(Cl)c(C(=O)OC(C)C)c1

["> 100 µM", "69.8 µM", "> 100 µM"]

###

Tested on: NCI-H23 lung
method: NCI tumour cell line growth inhibition, 48 h
The threshold is inclusive: TGI of exactly 5 µM counts as 1.0; values below receive 0.0.

Consider the following illustrative entries.
COc1cccc2c1n([O-])c1cccc(OC)c1[n+]2=O : 1.0
Cc1ccc(-n2cc([Si](C)(C)C)nn2)s1 : 1.0
CC(=O)c1nc2ccccc2n1CC(=O)c1cccc(Cl)c1 : 1.0

Consider now this further compound.
TGI >= 5 µM for Cc1ccc(-c2cc(O)c(-c3ccc(C)cc3C)cc2O)c(C)c1 ? 1.0

###

Tested on: OVCAR-5 ovarian
method: NCI tumour cell line growth inhibition, 48 h; in the data active = GI50 below about 0.43 µM; inactive = the rest
# output must be one of active, inactive

CC(=O)c1nc2ccccc2n1CC(=O)c1cccc(Cl)c1 : inactive
CC(=O)[O-].O=C([CH-]C(=O)c1ccccc1)c1ccccc1.O=C([CH-]C(=O)c1ccccc1)c1ccccc1.[Sm+3] : inactive
C[C@@H]1COCCN1c1cc(C2(O)C[C@H]3CC[C@@H](C2)O3)c2cnn(-c3ccn[nH]3)c2n1 (some centres undefined) : active
C=C(C(=O)O[C@H]1C(=O)C2=C(C)CCC3C(=C)C(=O)O[C@@H]3C2[C@]1(C)O)C1CC[C@]2(C)CCCC(=C)[C@H]2C1 (some centres undefined) : inactive
CCCCCn1c(C)cc(/C=C\c2ccc3cc(C)ccc3[n+]2C)c1C : active
COc1c(B(O)O)cc(F)cc1-c1nc2ccc3[nH]ncc3c2c2c1CCCC2 : inactive
CNCCN=c1ccc2c3c1c(O)c1c(O)ccc(=O)c1c3[nH]n2CCNCCO : inactive
CC(=O)[CH-]C(C)=O.CC(=O)[CH-]C(C)=O.CC[O-].CC[O-].[Ti+4] : inactive

Please state the recorded outcome for this compound: CN(C)CCCn1c(-c2nonc2N)nc2cnccc21 inactive

###

Tested on: HCT-116 colon
method: NCI tumour cell line growth inhibition, 48 h
The threshold is inclusive: TGI of exactly 20 µM counts as Met; values below receive Not met.

COc1ccccc1C(=O)N(C)c1ccc(Cl)c(C(=O)OC(C)C)c1 : Met
Cc1ccc([N+](=O)[O-])c2c(NCC(O)CO)ccnc12 (stereo not given) : Met
CCN1CCC(O)(/C=C/c2ccc(OC)cc2)C(C(=O)/C=C/c2ccc(OC)cc2)C1 (stereo not given) : Not met
Oc1ccc(Cl)cc1C1=NC(/N=C\c2ccccc2)=NC(c2ccccc2)C1 (stereo not given) : Met
Cc1ccc([C@]2(C)CC[C@H](C)/C2=C\Br)c(O)c1 : Not met
O=C(CSc1nc2ccccc2c(=O)n1-c1ccccc1)N=Nc1c(O)[nH]c2ccc(F)cc12 : Not met
COc1ccc(N2C(=O)C3c4[nH]c5ccccc5c4C4CCCCC4C3C2=O)cc1 (stereo not given) : Met
Fc1cc(-c2cc(-c3ccc4c(c3)OCO4)n[nH]2)c(Cl)cc1Cl : Not met

Consider now this further compound.
TGI >= 20 µM for Cc1ccc(Sc2cc3c(oc2=O)-c2ccccc2OC3O)cc1 (stereo not given) ? Met

###

System: SR leukemia
method: NCI tumour cell line growth inhibition, 48 h; in the data active = GI50 below about 0.43 µM; inactive = the rest
# output must be one of active, inactive

Consider the following illustrative entries.
CC(=O)c1nc2ccccc2n1CC(=O)c1cccc(Cl)c1 : active
CCN(Cc1c(Cl)cccc1Cl)c1ccc(CO)c(Cl)c1 : inactive
COc1ccc(-c2nn(-c3ccc(NC(=O)Nc4ccc(Cl)c(C(F)(F)F)c4)cc3)cc2-c2ccncc2)cc1Cl : inactive

Please state the recorded outcome for this molecule: Cc1cc(C(=O)c2ccccc2)c(C)c2c1[nH]c1ccc(Cl)cc12 active

###

Test system: SF-268 CNS
method: NCI tumour cell line growth inhibition, 48 h; in the data active = GI50 below about 0.43 µM; inactive = the rest
# output must be one of true (1) for active, false (0) for inactive

Cc1cc(Nc2cc(N)ncn2)c(=O)n2c1C(=O)NC21CCCCC1 : false (0)

Please state the recorded outcome for this compound: COc1ccc(Cn2cc3c(c2-c2cc(OC)c(OC)c(OC)c2)CCc2cnoc2-3)cc1 false (0)

Please state the recorded outcome for this compound: O=C(CCCCC(=O)N/N=C\c1ccccc1O)N/N=C\c1ccccc1O false (0)

Please state the recorded outcome for this compound: CS(=O)(=O)N(c1cc(-c2ccc3ncnc(Nc4cccc(Cl)c4)c3c2)cnc1Cl)S(C)(=O)=O false (0)

Please state the recorded outcome for this compound: Nc1c(C(=O)Nc2cccc(Cl)c2Cl)sc2nc3c(cc12)C(=O)CCC3 false (0)

Please state the recorded outcome for this compound: COc1c(B(O)O)cc(F)cc1-c1nc2ccc3[nH]ncc3c2c2c1CCCC2 false (0)

Please state the recorded outcome for this compound: O=C1OCC2=C1C(c1ccccc1)c1cc3c(cc1N2CCO)OCCO3 (centres undefined) false (0)

Please state the recorded outcome for this compound: O=C(c1ccccc1)c1c(C(F)(F)F)n([O-])c2ccc(C(F)(F)F)cc2[n+]1=O true (1)

Please state the recorded outcome for this compound: C=C(C(=O)O[C@H]1C(=O)C2=C(C)CCC3C(=C)C(=O)O[C@@H]3C2[C@]1(C)O)C1CC[C@]2(C)CCCC(=C)[C@H]2C1 (some centres undefined) false (0)

###

Test system: KM12 colon
method: NCI tumour cell line growth inhibition, 48 h; in the data active = GI50 below about 0.43 µM; inactive = the rest
# output must be one of 1 = active, 0 = inactive

Consider the following illustrative entries.
Cc1cc(I)cc(CN(C)CCCN2CCN(C)CC2)c1O : 0
COc1c(B(O)O)cc(F)cc1-c1nc2ccc3[nH]ncc3c2c2c1CCCC2 : 0
Nc1c(C(=O)Nc2cccc(Cl)c2Cl)sc2nc3c(cc12)C(=O)CCC3 : 0
Cc1ccc([C@]2(C)CC[C@H](C)/C2=C\Br)c(O)c1 : 0
O=C(/C=C\c1cccc2ccccc12)c1cccc2ccccc12 : 0

Please state the recorded outcome for this molecule: COc1cc(NC(=O)C2=C(N3CCOCC3)/C(=C/c3ccc(Cl)cc3)CC2)cc(OC)c1OC 0

Please state the recorded outcome for this molecule: Cc1cccc(Cc2cnc(NC(=O)CCc3ccc(C)o3)s2)c1 1

Please state the recorded outcome for this molecule: CCN(Cc1c(Cl)cccc1Cl)c1ccc(CO)c(Cl)c1 0

Please state the recorded outcome for this molecule: C=CC(COC(c1ccccc1)(c1ccccc1)c1ccccc1)N(CC)CC (stereo unspecified) 0

Please state the recorded outcome for this molecule: Cc1cc(Nc2cc(N)ncn2)c(=O)n2c1C(=O)NC21CCCCC1 0

Please state the recorded outcome for this molecule: COc1cccc2c1n([O-])c1cccc(OC)c1[n+]2=O 0
